- method_summary: Drug concentration in C57BL/6 mouse serum at 100 mg per mouse administered via oral dosing after 2 hrs by LC-MS analysis
- Assay type: ADME
- measurement_setup: read-out: Drug uptake
outcome_measure: concentration at 2 h
Show the value, then the unit it is measured in.

**Query** Form field: reported concentration at 2 h of NS(=O)(=O)NCCNc1nonc1C(=NO)Nc1ccc(F)c(Br)c1 [EPACADOSTAT]
**Result** 1400 nM

---

- target_desc: Indoleamine 2,3-dioxygenase 1 (Homo sapiens)
- method_summary: Inhibition of IDO1 in human SK-OV-3 cells
- Format: cell-based
Activity calls are given as the source filed them. The calls are words filed in the database; no cut-off is given here.
Permitted responses: active, inactive

Study these solved cases before continuing.
molecular_string	target_desc	qualitative_label
O=C(NOCc1ccc([N+](=O)[O-])cc1)[C@H](O)c1ccccc1	Indoleamine 2,3-dioxygenase 1 (Homo sapiens)	inactive
O=C(NOCc1ccc([N+](=O)[O-])cc1)C12CC3CC(CC(C3)C1)C2	Indoleamine 2,3-dioxygenase 1 (Homo sapiens)	inactive
O=C(N[C@@H](CO)C(=O)NOCc1ccccc1)OCc1ccccc1	Indoleamine 2,3-dioxygenase 1 (Homo sapiens)	active
NOCc1ccccc1	Indoleamine 2,3-dioxygenase 1 (Homo sapiens)	active
O=C(N[C@@H](CO)C(=O)NOCc1ccc([N+](=O)[O-])cc1)OCc1ccccc1	Indoleamine 2,3-dioxygenase 1 (Homo sapiens)	active

Would you kindly look at the next entry?
**Query** What outcome does the record of this test show for Cl.NOCc1ccc([N+](=O)[O-])cc1 ?
**Result** active

---

- target_desc: Indoleamine 2,3-dioxygenase 1 (Homo sapiens)
- method_summary: Inhibition of recombinant human IDO1 at 10 ug/ml relative to control
- measurement_setup: dose 10.0 µg/ml
Recorded measurements of inhibition, one per entry
Numbers only; they are read as %.

Field: example entries. Status: answers known.
molecular_string	inhibition (%)
O=C(N[C@@H](CO)C(=O)NCCc1ccccc1)OCc1ccccc1	-5.1
NOCc1ccccc1	100
O=C(NOCc1ccc([N+](=O)[O-])cc1)C12CC3CC(CC(C3)C1)C2	12
O=C(N[C@@H](CO)C(=O)Nc1ccccc1O)OCc1ccccc1	2.9
O=C(N[C@@H](CO)C(=O)O)OCc1ccccc1	-5.5

**Query** Look at this compound and give its reported inhibition. O=[N+]([O-])c1ccc(CONS(=O)(=O)Cc2ccccc2)cc1
**Result** 0.19

**Query** Param item: O=C(NOCc1ccc([N+](=O)[O-])cc1)C12CC3CC(CC(O)(C3)C1)C2
**Result** -3.3

**Query** Next compound: N[C@@H](CO)C(=O)NOCc1ccccc1
**Result** 0

**Query** Do the same for CC12CC3CC(C)(C1)CC(C(=O)NOCc1ccccc1)(C3)C2 please
**Result** 7.9

**Query** Try this compound next: Cl.NOCc1ccc([N+](=O)[O-])cc1
**Result** 100

**Query** Now this one: O=C(N[C@H](CO)C(=O)NOCc1ccccc1)OCc1ccccc1
**Result** 5.6

**Query** Another compound: CONC(=O)[C@H](CO)NC(=O)OCc1ccccc1
**Result** -8.3

---

Each entry below carries its reported inhibition.
- target_desc: Indoleamine 2,3-dioxygenase 1 (Homo sapiens) (UniProt P14902)
- Sequence (P14902 whole entry, looked up): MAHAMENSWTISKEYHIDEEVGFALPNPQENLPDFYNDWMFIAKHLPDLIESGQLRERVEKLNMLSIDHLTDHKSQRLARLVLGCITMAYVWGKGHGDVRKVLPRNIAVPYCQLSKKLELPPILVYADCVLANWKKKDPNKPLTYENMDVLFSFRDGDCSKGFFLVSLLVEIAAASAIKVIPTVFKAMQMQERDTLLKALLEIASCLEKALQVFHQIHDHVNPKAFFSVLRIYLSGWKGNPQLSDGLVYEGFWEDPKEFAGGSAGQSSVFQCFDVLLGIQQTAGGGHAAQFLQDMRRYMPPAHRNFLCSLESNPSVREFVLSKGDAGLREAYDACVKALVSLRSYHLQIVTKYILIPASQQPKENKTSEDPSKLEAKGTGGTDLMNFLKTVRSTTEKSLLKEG
- method_summary: Inhibition of recombinant human IDO1 at 10 ug/ml relative to control
- measurement_setup: dose 10.0 µg/ml
Hi! Could you send only the number? It should be in %, unit omitted.

Example results:
molecular_string	target_desc	inhibition (%)
O=C(N[C@@H](CO)C(=O)NOCc1ccccc1)OCc1ccccc1	Indoleamine 2,3-dioxygenase 1 (Homo sapiens) (UniProt P14902)	10
O=C(NOCc1ccc([N+](=O)[O-])cc1)[C@H](O)c1ccccc1	Indoleamine 2,3-dioxygenase 1 (Homo sapiens) (UniProt P14902)	9
C[C@H](NC(=O)OCc1ccccc1)C(=O)NOCc1ccccc1	Indoleamine 2,3-dioxygenase 1 (Homo sapiens) (UniProt P14902)	-9.4
O=C(N[C@@H](Cc1c[nH]c2ccccc12)C(=O)NOCc1ccccc1)OCc1ccccc1	Indoleamine 2,3-dioxygenase 1 (Homo sapiens) (UniProt P14902)	4.9

Switching to the query record.
**Query** I would be grateful if you could share the reported inhibition for O=C(N[C@@H](CO)C(=O)NOCc1ccc([N+](=O)[O-])cc1)OCc1ccccc1 .
**Result** -9.2

Source: ChEMBL document CHEMBL5576044
